species on record: Mus musculus; assay: Anticonvulsant activity in male CD1 mice; format: functional
METRIC: ED50 (mg/kg)
Numbers only, in mg/kg.

Please review the following examples before continuing.
[
  {
    "MOLECULE": "CC(C(=O)O)c1cccc2c1Cc1c-2nc(O)c2nc(C(=O)O)cn12 (stereo unspecified)",
    "UNIT TEXT": "mg/kg",
    "ED50": 19
  },
  {
    "MOLECULE": "O=C(O)Cc1cccc2c1Cc1c-2nc(O)c2nc(C(=O)O)cn12",
    "UNIT TEXT": "mg/kg",
    "ED50": 1.2
  },
  {
    "MOLECULE": "O=C(O)[C@@H]1C[C@H]2C[C@@H](CCc3nn[nH]n3)CC[C@H]2CN1 [TEZAMPANEL ANHYDROUS]",
    "UNIT TEXT": "mg/kg",
    "ED50": 4
  },
  {
    "MOLECULE": "O=c1[nH]c2cc(-n3ccnc3)c([N+](=O)[O-])cc2[nH]c1=O [YM-90K]",
    "UNIT TEXT": "mg/kg",
    "ED50": 12
  },
  {
    "MOLECULE": "O=C(O)Cc1cn2c3c(nc(O)c2n1)-c1cccc(CC(=O)O)c1C3",
    "UNIT TEXT": "mg/kg",
    "ED50": 2
  }
]

Go through the list and state ED50 for each entry.
1. O=C(O)Cc1ccc2c(c1)Cc1c-2nc(O)c2nc(C(=O)O)cn12
2. Oc1nc2c(n3ccnc13)Cc1ccccc1-2
3. NS(=O)(=O)c1cccc2c1c([N+](=O)[O-])cc1nc(O)c(O)nc12
4. O=C(O)c1cn2c3c(nc(O)c2n1)-c1ccccc1C3

Response:
1: 16; 2: 62; 3: 36; 4: 50

Reference source for all entries: ChEMBL document CHEMBL1132845
